Biological target: T1, human CD33 extracellular domain (human, UniProt P20138 18-259)
T1 construct: soluble monomeric ECD; also called human CD33 ECD; hCD33
Experiment: SPR, Fab captured, 37C;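 also: Anti-CD33 Fabs captured on anti-Fab chip, soluble monomeric CD33 or its domains flowed over at several concentrations, double-referenced data fitted 1:1, Kd taken as koff/kon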
measurement_name: koff (s⁻¹)
Dear colleague, please return just the value in s⁻¹, with no unit written.

Query ADI-10164 Fab (Fab, V domains shown, Fab fragment; also called Ab18) VH: QVQLQESGPGLVKPSETLSLTCAVSGYSISSGYYWGWIRQPPGKGLEWIGSIYHSGSTNYNPSLKSRVTISVDTSKNQFSLKLSSVTAADTAVYYCARLPPWFGFSYFDLWGRGTLVTVSS VL: EIVLTQSPATLSLSPGERATLSCRASQSVSSYLAWYQQKPGQAPRLLIYDASNRATGIPARFSGSGSGTDFTLTISSLEPEDFAVYYCQQVDNYPPTFGGGTKVEIK yields koff of 0.0101

The binder identified as ADI-11819 Fab (Fab, V domains shown, Fab fragment; also called Ab8) VH: EVQLVESGGGLVKPGGSLRLSCAASGFTFSSYAMSWVRQAPGKGLEWVSSISSSSEGIYYADSVKGRFTISRDNAKNSLYLQMNSLRAEDTAVYYCAREGGPYYDSSGYFVYYGMDVWGQGTTVTVSS VL: DIQMTQSPSTLSASVGDRVTITCRASNSISSWLAWYQQKPGKAPKLLIYEASSTKSGVPSRFSGSGSGTEFTLTISSLQPDDFATYYCQQYDDLPTFGGGTKVEIK registered its koff at 5.65e-05

Lab book: koff of ADI-11807 Fab (Fab, V domains shown, Fab fragment; also called Ab5; I07) VH: EVQLVESGGGLVQPGGSLRLSCAASGFTFGSYWMSWVRQAPGKGLEWVATIKQDGSEKSYVDSVKGRFTISRDNAKNSLYLQMNSLRAEDTAVYYCARPLNAGELDVWGQGTMVTVSS VL: DIQMTQSPSTLSASVGDRVTITCRASQSISSWLAWYQQKPGKAPKLLIYEASSLESGVPSRFSGSGSGTEFTLTISSLQPDDFATYYCQQSQSYPPITFGGGTKVEIK noted as 0.000332

Quick note, koff for ADI-11835 Fab (Fab, V domains shown, Fab fragment; also called Ab10; I35) VH: QLQLQESGPGLVKPSETLSLTCTVSGGSISSTDYYWGWIRQPPGKGLEWIGSIGYSGTYYNPSLKSRVTISVDTSKNQFSLKLSSVTAADTAVYYCARETAHDVHGMDVWGQGTTVTVSS VL: EIVLTQSPATLSLSPGERATLSCRASHSVYSYLAWYQQKPGQAPRLLIYDASNRATGIPARFSGSGSGTDFTLTISSLEPEDFAVYYCQQYDNLPTFGGGTKVEIK landed at 0.00143
